Test system: LOX IMVI
Measurement protocol: NCI 60 cell line single dose screen (SRB)
Format: cell-based
Measurement setup: Homo sapiens; LOX IMVI (melanoma), single dose 10^−5 M, 48 h; read-out: Growth inhibition percentage
Parameter: inhibition at 10 µM (%)
Please reply with the bare figure in % and do not write the unit itself.

// Cc1nn(-c2ccc(F)cc2)c2ncnc(N3CCOCC3)c12 : inhibition at 10 µM value = -2.33

// Cc1nn(-c2ccc(F)cc2)c2ncnc(Cl)c12 : inhibition at 10 µM value = 6.64

// COc1ccc(N2CCN(c3ncnc4c3c(C)nn4-c3ccc(F)cc3)CC2)cc1 : inhibition at 10 µM value = 0.28

// Cc1nn(-c2ccc(F)cc2)c2ncnc(NN)c12 : inhibition at 10 µM value = 13.3

// COc1cc(C=NNc2ncnc3c2c(C)nn3-c2ccc(F)cc2)cc(OC)c1OC [Compound 10c] : inhibition at 10 µM value = 9.33

// Cc1nn(-c2ccc(F)cc2)c2ncnc(N)c12 : inhibition at 10 µM value = 1.75

// Cc1ccc(Nc2ncnc3c2c(C)nn3-c2ccc(F)cc2)cc1 : inhibition at 10 µM value = -0.99

----------
Tested on: LOX IMVI
Measurement protocol: NCI 60 cell line single dose screen (SRB)
Type: cell-based
Measurement setup: Homo sapiens; LOX IMVI (melanoma), single dose 10^−5 M, 48 h; read-out: Growth inhibition percentage
Method: Anticancer activity screening of the newly synthesised compounds was measured in vitro utilising 60 different human tumour cell lines provided by US National Cancer Institute according to previously reported standard procedure[27–29] as follows: Cells are inoculated into 96-well microtitre plates in 100 ml. […] Bound stain is subsequently solubilised with 10 mM trizma base, and the absorbance is read on an automated plate reader at a wavelength of 515 nm. […]
Parameter: inhibition at 10 µM (%)
Please reply with the bare figure in % and do not write the unit itself.

Examples with answers:
// Cc1nn(-c2ccc(F)cc2)c2nc[nH]c(=O)c12 [Compound 3] : inhibition at 10 µM value = 2.19

// Cc1nn(-c2ccc(F)cc2)c2ncnc(Nc3ccc(F)c(Cl)c3)c12 [Compound 7d] : inhibition at 10 µM value = 8.68

// Cc1nn(-c2ccc(F)cc2)c2nc(N)nc(N)c12 [Compound 5] : inhibition at 10 µM value = 2.19

// COc1cc(C=NNc2ncnc3c2c(C)nn3-c2ccc(F)cc2)ccc1O [Compound 10b] : inhibition at 10 µM value = 19

Then this compound:
// Cc1nn(-c2ccc(F)cc2)c2ncnc(N3CCN(c4ccc(Cl)cc4)CC3)c12 [Compound 8c] : inhibition at 10 µM value = 4.93

----------
Listing of recorded inhibition at 10 µM by entry.
Test system: OVCAR-3
Measurement protocol: NCI 60 cell line single dose screen (SRB)
Format: cell-based
Measurement setup: Homo sapiens; OVCAR-3 (ovarian cancer), single dose 10^−5 M, 48 h; read-out: Growth inhibition percentage
Please reply with the bare figure in % and do not write the unit itself.

// Cc1nn(-c2ccc(F)cc2)c2ncnc(N3CCN(c4ccc(Cl)cc4)CC3)c12 : inhibition at 10 µM value = 1.21

Further cases:
// COc1cc(C=NNc2ncnc3c2c(C)nn3-c2ccc(F)cc2)cc(OC)c1OC [Compound 10c] : inhibition at 10 µM value = -0.3

// COc1ccc(N2CCN(c3ncnc4c3c(C)nn4-c3ccc(F)cc3)CC2)cc1 : inhibition at 10 µM value = -8.47

// Cc1nn(-c2ccc(F)cc2)c2ncnc(N)c12 : inhibition at 10 µM value = -2.81

// Cc1nn(-c2ccc(F)cc2)c2nc(N)nc(N)c12 : inhibition at 10 µM value = -12.9

Reference for the values: paper PMC6352943
